Known mortality at 20 g/ha of a selection of molecules
# Tested on: Phaedon cochleariae larvae
# experimentDescription: whole plant or invertebrate
# conditionSummary: read-out: Mortality in % after 6^d
measurementLabel: mortality at 20 g/ha (%)

>>> valuemeasured("Cc1c(F)c(F)c(COC(=O)[C@@H]2[C@H](/C=C(\\Cl)C(F)(F)F)C2(C)C)c(F)c1F (racemic)")
50
>>> valuemeasured("N#C/N=C1\\SCCN1Cc1ccc(Cl)nc1")
33
>>> valuemeasured("O=C(NC(=O)c1ccccc1Cl)Nc1ccc(OC(F)(F)F)cc1")
0
>>> valuemeasured("CN/C(=N/CC1CCOC1)N[N+](=O)[O-] (stereo not shown)")
0
>>> valuemeasured("CN/C(=N\\[N+](=O)[O-])NCc1cnc(Cl)s1")
83
>>> valuemeasured("C/C(=N\\C#N)N(C)Cc1ccc(Cl)nc1")
33
>>> valuemeasured("Cc1cc(F)c(-n2nc(C(F)(F)F)nc2N)cc1[S+]([O-])CC(F)(F)F (racemic)")
0
>>> valuemeasured("CCN(Cc1ccc(Cl)nc1)/C(=C/[N+](=O)[O-])NC")
0
>>> valuemeasured("O=[N+]([O-])NC1=NCCN1Cc1ccc(Cl)nc1")
0
>>> valuemeasured("O=C(NC(=O)c1c(F)cccc1F)Nc1ccc(Oc2ccc(C(F)(F)F)cc2Cl)cc1F")
0
